// values below are reported Control
- targetUnderTest: Deoxyhypusine synthase (Homo sapiens) (UniProt P49366)
- Sequence (P49366 whole entry): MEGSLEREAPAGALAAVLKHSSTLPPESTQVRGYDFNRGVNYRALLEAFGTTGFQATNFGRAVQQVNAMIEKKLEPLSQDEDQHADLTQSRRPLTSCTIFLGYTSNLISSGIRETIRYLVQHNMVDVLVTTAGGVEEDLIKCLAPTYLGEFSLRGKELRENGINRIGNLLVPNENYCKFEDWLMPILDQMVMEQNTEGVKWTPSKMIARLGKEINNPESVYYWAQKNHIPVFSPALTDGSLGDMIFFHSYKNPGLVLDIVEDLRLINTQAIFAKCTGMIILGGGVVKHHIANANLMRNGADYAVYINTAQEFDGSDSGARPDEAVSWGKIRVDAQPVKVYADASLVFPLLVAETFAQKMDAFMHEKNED
- assayText: Effect on Hypusine formation in CHO cells at concentration 3 uM.
- Type: functional, cell-based
- assayConditions: Cricetulus griseus
assayReadout: Control (%)

1) N=C(N)NCCCCCCCNCCCCCCCNC(=N)N: 90
2) NCCCSCCCN: 100
3) NCCCSCCCN=C(N)N: 50
4) N=C(N)NCCCCCNCCCCCNC(=N)N: 100
5) N=C(N)NCCCCNCCCCNC(=N)N: 100
6) N=C(N)NCCCCCCCCNCCCCCCCCNC(=N)N: 100

###

- System: CHO
- assayText: Effect on spermidine uptake in CHO cells at concentration 10 uM.
- Format: functional
assayReadout: Control (%)

1. NCCCCCCCCNCCCCCCCCN=C(N)N: 80
2. NCCCCCNCCCCCN=C(N)N: 74
3. N=C(N)NCCCCCCCNCCCCCCCNC(=N)N: 95
4. NCCCCCCNCCCCCCN=C(N)N: 80
5. N=C(N)NCCCSCCCNC(=N)N: 81
6. N=C(N)NCCCCNCCCCNC(=N)N: 85
7. NCCCCCCCNCCCCCCCN=C(N)N: 65
